Data credit: the supplement of paper PMC10567573

B1: C1orf55 (parent)
chain: FTSPDYQQQCHEMAERLEDSVLKG

- Variants of: B1
- RUN DESCRIPTION: protein stability index of a GFP-peptide fusion (GPS, HEK-293T) (PSI 1-6); higher = more stable;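 note: lentivirally expressed fusions sorted by FACS into six bins by GFP to DsRed ratio, PSI derived from sequencing read proportions per bin multiplied by bin number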
- CONDITIONS: c terminus: a fixed tail appended
Property: protein stability index; scope: individual variants
Reply: number alone, nothing else.

   alteration                  readout  reported_value
0        L17S  protein stability index            2.47

Asked: Respond only with protein stability index recorded for `E18G`
Given back: 2.23

Asked: Read the entry `H11F` and write its reported protein stability index.
Given back: 2.26

Asked: State its protein stability index for this variant: `D19W`
Given back: 2.23

Asked: # return recorded protein stability index for entry `S3Q`
Given back: 3.1

Asked: Provide protein stability index value for the following variant: `D5A`
Given back: 2.15

Asked: Check the records and state protein stability index for `H11L`
Given back: 1.87
